System: SK-MEL-5 melanoma
EXPERIMENTAL PROTOCOL: NCI tumour cell line growth inhibition, 48 h; in the data active = GI50 below about 0.43 µM; inactive = the rest
Classes used: Y (active), N (inactive)

INSERT INTO measurements (mol, group) VALUES
  ('COc1ccccc1/C=C1\COc2ccc(O)c(O)c2C1=O', 'N'),
  ('O=C(CCCCCCc1nc2ccc(Br)cc2[nH]1)NO', 'Y'),
  ('c1ccc([CH2][Sn]([CH2]c2ccccc2)([S]c2cccc3cccnc23)[S]c2cccc3cccnc23)cc1', 'Y'),
  ('O=C1CCC/C=C\C[C@H]2C=C(Cl)C(=O)/C2=C/C[C@H](CCCCC(F)(F)F)OC(=O)CCC/C=C\C[C@H]2C=C(Cl)C(=O)/C2=C/C[C@H](CCCCC(F)(F)F)O1', 'Y'),
  ('CC[C@]1(O)C[C@@H]2CN(Cc3c([nH]c4ccccc34)[C@@](C(=O)OC)(c3cc4c(cc3OC)N(C)[C@H]3[C@@](O)(C(=O)OC)[C@H](OC(C)=O)[C@]5(CC)[C@@H]6C[C@@H]6CN6CC[C@]43[C@@H]65)C2)C1', 'Y'),
  ('COc1ccc(/C=C2/SC(=Nc3c(C)nn(-c4ccccc4)c3N)NC2=O)cc1', 'N'),
  ('CC/C(=C(\c1ccccc1)c1ccc(OCCN(C)C)cc1)c1ccccc1', 'N'),
  ('CCOC(=O)c1cnc2ccc(Cl)cc2c1NCCCN(C)C', 'N');
